Tested on: Key Grass and Sedge Weeds as well as Grass Crops
Experiment: Post-emergent Test II herbicidal activity (Table 16)
Type: in vivo
Conditions: Echinochloa crus-galli, post-emergence, 336 h, barnyardgrass (Echinochloa crus-galli), 140 g ai/ha, 14 d, read-out: Visual Growth Reduction (%) 14 Days After Application, ECHCG
From the text: Post-emergent Test II: Seeds or nutlets of the desired test plant species were planted in Sun Gro Metro-Mix® 360 planting mixture, which typically has a pH of 6.0 to 6.8 and an organic matter content of about 30 percent, in plastic pots with a surface area of 64 square centimeters. When required to ensure good germination and healthy plants, a fungicide treatment and/or other chemical or physical treatment was applied. […]
MEASURE_NAME: pest or weed control at 140 g/ha

Known results for compounds:
Cc1c(-c2ccc3cc[nH]c3c2)nc(C(=O)O)c(Cl)c1N :: 0 to 29%
COC(=O)c1nc(-c2ccc(Cl)c3ccoc23)nc(N)c1OC :: 0 to 29%
COC(=O)c1nc(-c2ccc3[nH]ccc3c2)c(F)c(N)c1Cl :: 45 to 59%
COc1c(N)nc(-c2ccc(Cl)c3occc23)nc1C(=O)O :: 0 to 29%
COC(=O)c1nc(-c2ccc(Cl)c3[nH]ccc23)nc(N)c1OC :: 0 to 29%

INPUT: Sample COC(=O)c1nc(-c2cc3ccoc3cc2F)cc(N)c1Cl — what was its pest or weed control at 140 g/ha?
OUTPUT: 95 to 100%

INPUT: Sample Nc1c(F)c(-c2ccc3cc[nH]c3c2F)nc(C(=O)O)c1Cl — what was its pest or weed control at 140 g/ha?
OUTPUT: 95 to 100%

INPUT: Sample Cn1ccc2cc(-c3nc(C(=O)O)c(Cl)c(N)c3F)ccc21 — what was its pest or weed control at 140 g/ha?
OUTPUT: 75 to 84%
